# Test system: UACC-257 melanoma
# method.notes: NCI-60 one-dose screen, 48 h (100 = growth as untreated, 0 = no growth, -100 = all killed)
# test.context: 10 µM unless noted
This is part of a sample that, as a whole, favours compounds with a hit. Of some 83,000 tested, about 20% had one in any assay. Activity calls are given as the source filed them. Rule for the calls: active = growth percent below 10; inactive = the rest.
experimental.readout: growth

Some solved cases for reference:
{"compound": "O=C(O)CCN1CCN(c2cccc(Cl)c2)CC1", "growth": "94.6% (inactive)"}
{"compound": "FCOC(C(F)(F)F)C(F)(F)F", "growth": "90.4% (inactive)"}
{"compound": "CC(C)(C)CC(C)(C)N(CSc1ccc(Cl)cc1)CSc1ccc(Cl)cc1", "growth": "63% (inactive)"}
{"compound": "CCOc1ccc(/C=N\\N2CCCCCC2)cc1OCC", "growth": "96.2% (inactive)"}
{"compound": "Cc1c(C(=O)Nc2nc(-c3ccccc3)cs2)nnn1-c1cccc2ccccc12", "growth": "44.9% [50 µM] (inactive)"}

Parameter requested: growth. Apply to each item below.
1. CC1(C)N=C(N)N=C(N)N1c1cccc(OCCOc2cccc([N+](=O)[O-])c2)c1
2. COC(=O)[C@H]1CCCN1C(=O)[C@H]1CCCN1C(=O)[C@@H](Cc1c[nH]c2ccccc12)NC(=S)Nc1cc(C(F)(F)F)cc(C(F)(F)F)c1

Marked response:
1: 48.3% (inactive); 2: 75.4% (inactive)

###

# Test system: M14 melanoma
# method.notes: NCI-60 one-dose screen, 48 h (100 = growth as untreated, 0 = no growth, -100 = all killed)
# test.context: 10 µM unless noted
The panel holds about 83,000 compounds, 20% with a hit somewhere; the sample as a whole holds those more often.
I'd be grateful if you could share measured growth for these entries.
Give bare numbers, in %.

{"compound": "Cc1c(C)n(CC(O)CNC2CCCCC2C)c2ccccc12 (stereo not given)", "test.system": "M14 melanoma", "output.unit": "%", "recorded.value": -59.4}
{"compound": "COc1ccc(-c2cc(=O)oc3c4c(ccc23)OCN(Cc2ccc(F)cc2)C4)cc1", "test.system": "M14 melanoma", "output.unit": "%", "recorded.value": 54.6}

Parameter requested: growth. Apply to each item below.
1. c1ccc2cc(-c3n(Cc4ccc5ccccc5n4)c4ccccc4[n+]3Cc3ccc4ccccc4n3)ccc2c1
2. Clc1ccc2c(N3CCN(c4ccnc(NC5CCCCC5)n4)CC3)ccnc2c1

Marked response:
[-8.82, -43.7]

Exam item: Recall the recorded growth for Cc1cc(=O)oc2c1ccc1oc(C(=O)c3ccccc3)c(C)c12 with M14 melanoma and state it.
Marked response: 77.2

###

# Test system: SNB-19 CNS
# method.notes: NCI-60 one-dose screen, 48 h
# test.context: 10 µM unless noted
# Description: Growth inhibition of the SNB-19 human tumor cell line is measured as a screen for anti-cancer activity. Cells are grown in 96 well plates and exposed to the test compound for 48 hours. Compounds are tested at a single concentration, which is 10^-5 M for most compounds. The reported endpoint is percent growth (GI% or GIPRCNT), where numbers from 0 - 100% represent growth inhibition, and numbers from -100% - 0 represent cell death. For example, a value of 40 represents 60% growth inhibition. […]
The panel holds about 83,000 compounds, 20% with a hit somewhere; the sample as a whole holds those more often. Activity calls are given as the source filed them. Rule for the calls: active = growth percent below 10; inactive = the rest.
Response enum: Y = active, N = inactive

Check out these entries, answers already filled in.
{"molecule": "Cc1ccccc1-n1nnc(C(=O)Nc2nc(-c3ccccc3)c(-c3ccccc3)s2)c1C", "test.system": "SNB-19 CNS", "answer.label": "N"}
{"molecule": "Clc1cccc(Cl)c1Nc1ccc2nnc(-c3ccncc3)n2n1", "test.system": "SNB-19 CNS", "answer.label": "N"}
{"molecule": "CCC(C)[C@H]1O[C@]2(CC[C@@H]1C)C[C@@H]1C[C@@H](C/C=C(\\C)[C@@H](OC3C[C@H](OC)C(O[C@H]4C[C@H](OC)[C@@H](O)[C@H](C)O4)[C@H](C)O3)[C@@H](C)/C=C/C=C3\\CO[C@@H]4[C@H](O)C(C)=C[C@@H](C(=O)O1)[C@]34O)O2 (some centres undefined)", "test.system": "SNB-19 CNS", "answer.label": "N"}
{"molecule": "O=c1c2cc(F)ccc2oc2c(NCCNCCO)nc3ccccc3c12", "test.system": "SNB-19 CNS", "answer.label": "N"}
{"molecule": "c1ccc2cc(-c3n(Cc4ccc5ccccc5n4)c4ccccc4[n+]3Cc3ccc4ccccc4n3)ccc2c1", "test.system": "SNB-19 CNS", "answer.label": "Y"}

Exam item: Outcome? NC1=NC(c2ccccc2OS(=O)(=O)c2ccc(Br)cc2)n2c(nc3ccccc32)N1 (centres undefined)
Marked response: N

Exam item: Outcome? CCOC(=O)c1[nH]c2cc(Cl)ccc2c1[C@@H](C(=O)NC(C)(C)C)N(CC)C(=O)CCCCC#Cc1cccc2c1CN(C1CCC(=O)NC1=O)C2=O (some centres undefined)
Marked response: N

Exam item: Outcome? Brc1ccc(Br)nn1
Marked response: N

Exam item: Outcome? CN1CCn2c(c(Sc3ccc(C(=O)NO)cc3)c3ccccc32)C1=O
Marked response: Y

Exam item: Outcome? O=C1OCC2=C1C(c1ccc3c(c1)OCO3)CC(=O)N2c1cccc(Cl)c1 (centres undefined)
Marked response: N

Exam item: Outcome? Cc1c(C)n(CC(O)CNC2CCCCC2C)c2ccccc12 (centres undefined)
Marked response: N

Exam item: Outcome? O=C1N/C(=C\c2ccccc2)c2ncccc21
Marked response: N

Exam item: Outcome? COc1cc2oc(-c3ccc(O)cc3)cc(=O)c2c(O)c1I
Marked response: N

Exam item: Outcome? O=c1onc(-c2ccccc2)c2ccccc12
Marked response: N

###

# System: RPMI-8226 leukemia
# method.notes: NCI-60 one-dose screen, 48 h (100 = growth as untreated, 0 = no growth, -100 = all killed)
# test.context: 10 µM
About 83,000 compounds went through this panel and 20% of them were active in at least one assay; those are over-represented in the sample as a whole.
I'd be grateful if you could share measured growth for these entries.
Answers are plain numbers, in %.

Some solved cases for reference:
{"compound": "COc1ccc(Nc2[nH]n(C3=Nc4ccccc4Sc4ccccc43)c(=O)c2C#N)cc1", "recorded.value": 37}
{"compound": "NC(=O)c1cc(I)ccc1NC(=O)COc1ccc(Cl)cc1Cl", "recorded.value": 96.3}
{"compound": "CCOC(=O)c1cn2c3c(cc(F)cc3c1=O)C(CC)c1ccccc1C2 (stereo unspecified)", "recorded.value": 64.2}
{"compound": "CCCCCCCC/C=C\\CCCCCCCCOc1cccc(CC(=O)NCC[N+](C)(C)C)c1", "recorded.value": 61.9}

Parameter requested: growth. Apply to each item below.
1. O=C1C2CC3C(CC2C(=O)[N]1[Sn]([c]1ccccc1)([c]1ccccc1)[c]1ccccc1)C1(Cl)C(Cl)=C(Cl)C3(Cl)C1(Cl)Cl (stereo unspecified)
2. COc1ccc(-n2c(SCc3cc(OC)c(OC)c(OC)c3)nc3ccc(C)cc3c2=O)c(OC)c1
3. Clc1ccccc1Nc1ccc2nnc(-c3ccncc3)n2n1

Marked response:
-52.3
-4.23
96.2

###

# Test system: CCRF-CEM leukemia
# method.notes: NCI-60 one-dose screen, 48 h
# test.context: 10 µM unless noted
The panel holds about 83,000 compounds, 20% with a hit somewhere; the sample as a whole holds those more often. Active and inactive are the calls of the source. Rule for the calls: active = growth percent below 10; inactive = the rest.
Response enum: active, inactive

{"compound": "COC(=O)C1C2CC3c4[nH]c5cc(OC)ccc5c4CCN3CC2CC(OC2CCCCO2)C1OC (stereo not given)", "test.system": "CCRF-CEM leukemia", "answer.label": "inactive"}
{"compound": "COc1ccc(NS(=O)(=O)c2ccc(-c3cnc(C4CC4)o3)cc2)cc1", "test.system": "CCRF-CEM leukemia", "answer.label": "inactive"}
{"compound": "Cc1nc2nc(C(F)(F)F)[nH]c2nc1C", "test.system": "CCRF-CEM leukemia", "answer.label": "inactive"}
{"compound": "Cc1oc2c(c1C(=O)N1CC[C@@H](N)C1)C(=O)c1c(c(O)c3ccccc3c1O)C2=O", "test.system": "CCRF-CEM leukemia", "answer.label": "active"}
{"compound": "NS(=O)(=O)c1ccc(C(=O)N/N=C(\\CS(=O)(=O)c2ccccc2)c2cc3cc(Br)ccc3o2)cc1", "test.system": "CCRF-CEM leukemia", "answer.label": "inactive"}

Exam item: Outcome? C=CC(=O)N1CC2(CC(n3nc(-c4ccc(Oc5ccccc5)cc4)c4c(N)ncnc43)C2)C1
Marked response: inactive

Exam item: Outcome? COC(=O)c1ccc(C(=O)Nc2ccccc2N)cc1
Marked response: active

Exam item: Outcome? CCOC(=O)c1sc(NC(=O)CN2CCC(Cc3ccccc3)CC2)nc1C
Marked response: inactive

Exam item: Outcome? COc1cccc(C2CC(=O)Nc3cc4c(cc32)OCO4)c1OC (stereo not given)
Marked response: inactive

Exam item: Outcome? COc1ccc(-c2nn(-c3ccc(NC(=O)c4ccc(Cl)c(Cl)c4)cc3)cc2-c2ccncc2)cc1Cl
Marked response: inactive
